Values from patent US20120149718A1

measurementType: melting point

Item CN(C)CCNC(=O)c1ccc(C(Cc2ccc(F)cc2)C(=O)Nc2nc3ccccc3o2)cc1 (stereo not drawn) has what recorded melting point? 149 to 151 °C

Item CS(=O)(=O)c1ccc(C(Cc2ccc(F)cc2)C(=O)Nc2cncc(Cl)n2)cc1 (stereo not drawn) has what recorded melting point? 191.6 to 192.7 °C

Item O=C(NCCO)c1ccc(C(Cc2ccc(F)cc2)C(=O)Nc2nc3ccccc3o2)cc1 (stereo not drawn) has what recorded melting point? 134 to 136 °C

---

# subjectOfTest: human P2X7 (Homo sapiens, UniProt Q99572)
# Construct: 1321N1 cells stably expressing the full length human P2X7 gene (1321N1-hP2X7)
# Sequence (Q99572 whole entry): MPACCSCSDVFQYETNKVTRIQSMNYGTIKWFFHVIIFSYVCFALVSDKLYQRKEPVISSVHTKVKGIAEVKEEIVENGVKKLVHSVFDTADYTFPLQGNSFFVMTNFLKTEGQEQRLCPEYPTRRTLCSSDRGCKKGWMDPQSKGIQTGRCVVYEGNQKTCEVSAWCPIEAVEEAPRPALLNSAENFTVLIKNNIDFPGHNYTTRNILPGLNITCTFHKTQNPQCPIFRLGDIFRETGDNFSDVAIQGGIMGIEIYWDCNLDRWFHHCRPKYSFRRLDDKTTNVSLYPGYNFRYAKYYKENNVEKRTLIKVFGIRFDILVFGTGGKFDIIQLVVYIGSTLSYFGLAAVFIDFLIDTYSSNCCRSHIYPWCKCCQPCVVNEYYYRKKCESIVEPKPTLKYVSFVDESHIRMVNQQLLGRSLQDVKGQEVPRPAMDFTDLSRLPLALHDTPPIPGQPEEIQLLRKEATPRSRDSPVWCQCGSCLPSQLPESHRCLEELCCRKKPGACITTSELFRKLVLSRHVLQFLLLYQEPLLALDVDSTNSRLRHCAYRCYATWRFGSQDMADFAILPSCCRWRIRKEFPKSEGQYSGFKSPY
# measurementNotes: Intracellular Calcium Flux (FLIPR) Assay
# Assay type: cell-based
# settings: 1321N1 cells stably expressing full length human P2X7; agonist 100 μM BzATP; fluo-3 calcium flux; read-out: FLIPR pIC50 hP2X7-1321n1 (converted)
Binary call on IC50 with cut-off 400 nM: strictly below means met, and equality or higher means not met.

Use the examples below as a reference point.
- molecule: "COCCN(C)Cc1cnc(NC(=O)C(Cc2ccc(F)cc2)c2ccc(S(C)(=O)=O)cc2)cn1 (stereo not drawn) [Compound I-23]"
  label: "not met"
- molecule: "CS(=O)(=O)c1ccc(C(Cc2ccc(F)cc2)C(=O)Nc2nc3ccncc3o2)cc1 (stereo not drawn) [Compound I-52]"
  label: "met"
- molecule: "Cc1ccccc1CC(C(=O)Nc1nc2ccccc2o1)c1ccc(S(C)(=O)=O)cc1 (stereo not drawn) [Compound I-2]"
  label: "met"

Below: the item to evaluate.
Quick check: IC50 of CS(=O)(=O)c1ccc(C(Cc2ccc(F)cc2)C(=O)Nc2nc3ccc(Cl)cc3o2)cc1 (stereo not drawn) [Compound I-38] under 400 nM? met

---

measurementType: melting point

See these solved cases before continuing.
- compound: "COCc1cnc(NC(=O)C(Cc2ccc(F)cc2)c2ccc(S(C)(=O)=O)cc2)cn1 (stereo not drawn) [Compound I-21]"
  measurementType: "melting point"
  reportedMeasurement: "69 to 82.3 °C"
- compound: "Cc1ccccc1CC(C(=O)Nc1nc2ccccc2o1)c1ccc(S(C)(=O)=O)cc1 (stereo not drawn) [Compound I-2]"
  measurementType: "melting point"
  reportedMeasurement: "105.7 to 108.9 °C"
- compound: "CS(=O)(=O)c1ccc(C(Cc2cccc(F)c2)C(=O)Nc2cnc(CO)cn2)cc1 (stereo not drawn) [Compound I-26]"
  measurementType: "melting point"
  reportedMeasurement: "82.8 to 98.7 °C"
- compound: "CS(=O)(=O)c1ccc(C(Cc2ccccc2F)C(=O)Nc2nc3ccccc3o2)cc1 (stereo not drawn) [Compound I-8]"
  measurementType: "melting point"
  reportedMeasurement: "99 to 100 °C"
- compound: "CS(=O)(=O)c1cccc(C(Cc2ccc(F)cc2)C(=O)Nc2nc3ccccc3o2)c1 (stereo not drawn) [Compound I-12]"
  measurementType: "melting point"
  reportedMeasurement: "99 to 100 °C"
- compound: "CCOC(=O)c1cnc(NC(=O)C(Cc2ccc(F)cc2)c2ccc(S(C)(=O)=O)cc2)cn1 (stereo not drawn) [Compound I-15]"
  measurementType: "melting point"
  reportedMeasurement: "106 to 107 °C"
- compound: "CS(=O)(=O)c1ccc(C(Cc2ccccc2)C(=O)Nc2nc3ccccc3o2)cc1 (stereo not drawn) [Compound I-4]"
  measurementType: "melting point"
  reportedMeasurement: "118 to 119 °C"
- compound: "O=C(Nc1nc2ccccc2o1)C(Cc1ccc(F)cc1)c1ccc(F)cc1F (stereo not drawn) [Compound I-29]"
  measurementType: "melting point"
  reportedMeasurement: "177.5 to 177.9 °C"

Item Cc1ccccc1CC(C(=O)Nc1nc2cc(Cl)ccc2o1)c1ccc(S(C)(=O)=O)cc1 (stereo not drawn) [Compound I-3] has what recorded melting point? 184 to 185 °C
